Ref: paper PMC2248166

- assaySystem: HLA B*1501 (Homo sapiens, UniProt P01889, A329T/A93T/A95T/C349S/D201E/D98Y/E187L/E204Q/E69M/E70A/K202T/N87E/Q94N/R155S/R180W/S121R/S35A/S48A/V306I/V36M/Y140S/Y91S)
- testDetails: biochemical
- Type: binding
resultType: Normalized average relative binding affinity(ARB)

Some solved cases for reference:
XXXXCXXXX [3064.0082] = 0.87
XXXXWXXXX [3064.0099] = 0.49
XXXXXXSXX [3064.0136] = 0.65
XXXXXQXXX [3064.0114] = 0.21
XXXIXXXXX [3064.0068] = 0.27
XXXXKXXXX [3064.0089] = 0.31

# map each sequence to its Normalized average relative binding affinity(ARB)
1. XXXXXXXMX [3064.0151]
2. XXXXXAXXX [3064.0101]
3. XXXXXKXXX [3064.0109]
4. XXXYXXXXX [3064.0080]
5. XXXKXXXXX [3064.0069]

Marked response:
1: 0.061; 2: 0.30; 3: 0.28; 4: 0.41; 5: 0.43

# map each sequence to its Normalized average relative binding affinity(ARB)
1. XXXXXXXCX [3064.0142]
2. XXXXXXXDX [3064.0143]
3. XXXXXYXXX [3064.0120]
4. XXXXXXFXX [3064.0125]

Marked response:
0.18
0.049
0.20
0.34

* * *

- assaySystem: HLA A*3201 (Homo sapiens, UniProt P04439, A270S/D101S/D185E/E176V/E277Q/F133L/G103R/G107R/G231S/H175R/I121M/I218V/I322F/K168Q/L105A/L300P/L318F/M331R/P208A/P217A/Q94H/R106L/R138Q/S129P/T104I/T323A/T345S/V100E/V321M/V358M)
- testDetails: biochemical
Where a SMILES comes first, the peptide text is derived from it.
resultType: IC50 (nM)
Answers are plain numbers, in nM.

CSCC[C@H](NC(=O)[C@@H](N)Cc1c[nH]cn1)C(=O)N[C@@H](C)C(=O)N[C@@H](Cc1ccc(O)cc1)C(=O)N[C@@H](CO)C(=O)N[C@@H](Cc1ccccc1)C(=O)N[C@@H](CCC(N)=O)C(=O)N[C@H](C(=O)N[C@@H](Cc1ccccc1)C(=O)O)[C@@H](C)O [3102.1331] (H-HMAYSFQTF-OH) = 16
CC(C)C[C@H](NC(=O)[C@@H](N)CCCNC(=N)N)C(=O)N[C@@H](Cc1ccccc1)C(=O)N[C@@H](Cc1ccc(O)cc1)C(=O)N[C@H](C(=O)N[C@@H](Cc1ccccc1)C(=O)N[C@@H](Cc1ccccc1)C(=O)N[C@@H](CO)C(=O)N[C@@H](Cc1ccc(O)cc1)C(=O)O)[C@@H](C)O [3102.0803] (H-RLFYTFFSY-OH) = 0.19
CC[C@H](C)[C@H](NC(=O)[C@@H](NC(=O)[C@H](Cc1ccc(O)cc1)NC(=O)[C@H](CCC(=O)O)NC(=O)[C@H](CCCCN)NC(=O)[C@H](Cc1ccccc1)NC(=O)[C@H](CC(N)=O)NC(=O)[C@H](CC(C)C)NC(=O)[C@@H](N)C(C)C)[C@@H](C)O)C(=O)O [3102.0371] (H-VLNFKEYTI-OH) = 8.1
CC[C@H](C)[C@H](NC(=O)[C@@H](N)CCCCN)C(=O)NCC(=O)N[C@@H](CCSC)C(=O)N[C@@H](Cc1ccccc1)C(=O)N[C@@H](CC(N)=O)C(=O)N[C@@H](CC(C)C)C(=O)N[C@H](C(=O)N[C@@H](Cc1ccccc1)C(=O)O)[C@@H](C)O [3102.0341] (H-KIGMFNLTF-OH) = 0.27
CC[C@H](C)[C@H](N)C(=O)N[C@H](C(=O)N[C@@H](Cc1ccc(O)cc1)C(=O)N[C@@H](CCC(=O)O)C(=O)N[C@@H](CCCCN)C(=O)N[C@@H](CO)C(=O)N[C@@H](CC(N)=O)C(=O)N[C@@H](CC(N)=O)C(=O)N[C@H](C(=O)O)[C@@H](C)CC)[C@@H](C)O [3102.0422] (H-ITYEKSNNI-OH) = 18

# map each molecule to its IC50
1. CC(C)[C@H](NC(=O)[C@H](Cc1ccc(O)cc1)NC(=O)[C@@H](NC(=O)[C@@H](N)CCCNC(=N)N)C(C)C)C(=O)NCC(=O)N[C@@H](CC(N)=O)C(=O)N[C@H](C(=O)N[C@@H](C)C(=O)N[C@@H](Cc1c[nH]c2ccccc12)C(=O)O)C(C)C [3102.0520] (H-RVYVGNVAW-OH)
2. CC(C)C[C@H](N)C(=O)N[C@@H](CO)C(=O)N[C@@H](Cc1ccc(O)cc1)C(=O)N[C@@H](Cc1ccc(O)cc1)C(=O)N[C@H](C(=O)N[C@H](C(=O)N[C@@H](Cc1ccc(O)cc1)C(=O)N[C@H](C(=O)N[C@@H](Cc1ccccc1)C(=O)O)C(C)C)C(C)C)C(C)C [3102.1098] (H-LSYYVVYVF-OH)

Marked response:
[1.1, 280]
